- method.summary: NCI Yeast Anticancer Drug Screen. Data for the cln2 rad14 strain (AID 165);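 further: 0% = growth equal to vehicle treated cultures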
- condition.info: S. cerevisiae cln2 rad14 strain, at 50.0 µM, active compounds read high
Compounds without any hit were thinned out: in the full panel of roughly 79,000, 15% have a hit.
measured.quantity: growth inhibition (%)
Your answer should be a plain number; it is taken to be in %.

Answered examples (3):
• CSc1ccc(C(=NO)c2ccc(SC)cc2)cc1 = -0.85
• O=C(c1ccco1)C(O)c1ccccc1 (configuration not stated) = -2.55
• O=C(O)CCC(=O)Nc1cc([N+](=O)[O-])ccc1OCc1ccccc1 = -12.4

Could you tell me which growth inhibition is on file for NC1=NN(O)C2=CC(Br)C=CC2=N1 (configuration not stated) ? 7.55

Could you tell me which growth inhibition is on file for COc1ccc(C2CC(c3ccccc3)=Nc3ccccc3S2)cc1OC (configuration not stated) ? 4.15

Could you tell me which growth inhibition is on file for O=C(/C=C/c1ccncc1)c1ccccc1 ? 11.9

Could you tell me which growth inhibition is on file for CCN(Cc1ccc(CN(CC)C(=O)c2sc3ccccc3c2Cl)cc1)C(=O)c1sc2ccccc2c1Cl ? -1.4

Could you tell me which growth inhibition is on file for CCC(C)NC(=O)/C(=C\c1ccccc1O)NC(=O)c1ccccc1 (configuration not stated) ? -5.65

Could you tell me which growth inhibition is on file for CC1(C)O[C@@H]2[C@@H](COC(=O)c3ccccc3)C[C@@H](C#N)[C@@H]2O1 ? 24.9

Could you tell me which growth inhibition is on file for O=C(O)/C=C/C=C/c1ccc(Cl)cc1 ? -14

Could you tell me which growth inhibition is on file for COc1ccccc1C(=O)O ? -1.75

Could you tell me which growth inhibition is on file for CCOC(=O)/C=C(\C)c1ccc(Cl)cc1 ? 3.8

----------
- method.summary: NCI Yeast Anticancer Drug Screen. Data for the rad50 strain (AID 155);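 further: 0% = growth of vehicle-only cultures of the same strain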
- condition.info: S. cerevisiae rad50 strain growth inhibition; at 50.0 µM; active compounds read high
About 79,000 compounds went through this panel and 15% of them were active in at least one assay; those are over-represented in the sample as a whole. Where a SMILES comes first, the peptide text is derived from it. [ ]: non-standard residue; d: D form. The star is where a group is joined. ξ: configuration not given here. dThr(3ξ) = CC(O)[C@@H](N)C(=O)O; dNMeL = CN[C@H](CC(C)C)C(=O)O; OBn = c1ccc(CO*)cc1; ξLac = CC(O)C(=O)O
measured.quantity: growth inhibition (%)
Your answer should be a plain number; it is taken to be in %.

Answered examples (3):
• Cc1ccc(NC(=O)OCC(F)(F)C(F)(F)C(F)(F)F)c(NC(=O)OCC(F)(F)C(F)(F)C(F)(F)F)c1 = -9.15
• CC(=O)OC(C)[C@@H](NC(=O)[C@@H](CC(C)C)N(C)C(=O)[C@@H]1CCCN1C(=O)C(C)O)C(=O)OCc1ccccc1 (some centres undefined) (H-[ξLac]P[dNMeL][dThr(3ξ)](Ac)-OBn) = 8.75
• [N-]=[N+]=Nc1ccccc1C(=O)NCCNC(=O)c1ccccc1N=[N+]=[N-] = -7.4

Here is another molecule to look at.
Could you tell me which growth inhibition is on file for N=c1oc2ccccc2cc1-c1nc2ccccc2c(=O)[nH]1 ? -1.75
